Tested on: HCC 2998
Assay: Growth inhibition of human HCC 2998 cells assessed as cell growth at 1 uM incubated for 48 hrs by sulforhodamine B assay relative to control
Assay type: functional
Settings: read-out: Activity
experimentalEndpoint: growth at 1 µM (%)
Answers are plain numbers, in %.

{"columns": ["chemicalSmiles", "testTarget", "experimentalEndpoint", "assayResult"],
 "data": [
  ["CN1CCc2nc3sc(C(N)=O)c(N)c3c(-c3cccs3)c2C1", "HCC 2998", "growth at 1 µM", 94],
  ["COc1cccc(NC(=O)c2sc3nc4c(cc3c2N)CN(Cc2ccccc2)CC4)c1", "HCC 2998", "growth at 1 µM", 86],
  ["Cc1ccc(NC(=O)c2sc3nc4c(cc3c2N)C(=O)CCC4)cc1C", "HCC 2998", "growth at 1 µM", 57],
  ["Cc1cccc(NC(=O)c2sc3nc4c(cc3c2N)C(=O)CCC4)c1", "HCC 2998", "growth at 1 µM", 28],
  ["CCc1ccccc1NC(=O)c1sc2nc3c(cc2c1N)C(=O)CCC3", "HCC 2998", "growth at 1 µM", 56]
]}

Batch: growth at 1 µM for all items listed.
1. Nc1c(C(=O)Nc2ccccc2)sc2nc3c(cc12)CN(Cc1ccccc1)CC3
2. CCc1cccc(C)c1NC(=O)c1sc2nc3c(cc2c1N)C(=O)CCC3

Result:
[105, 55]

Query: Could you share which growth at 1 µM value was measured for `Cc1cc(C)c(NC(=O)c2sc3nc4c(cc3c2N)CN(Cc2ccccc2)CC4)c(C)c1` ?
Result: 103

* * *

Please respond with reported growth at 10 µM for every item in the list.
System: HL-60(TB)
Assay: Growth inhibition of human HL-60(TB) cells assessed as cell growth at 10 uM incubated for 48 hrs by sulforhodamine B assay relative to control
Type: functional
Conditions: read-out: Activity

Below, 4 molecules whose answers are already recorded.
{"columns": ["chemicalSmiles", "growth at 10 µM"],
 "data": [
  ["COc1ccc(S(=O)(=O)n2ccc(-c3ccc4c(c3)CCC(C)(C)O4)n2)cc1OC", "94.7%"],
  ["COc1ccc(S(=O)(=O)n2ccc(-c3ccc4c(c3)CCC(C)(C)O4)n2)cc1", "60%"],
  ["CC1(C)CCc2cc(-c3ccn(S(=O)(=O)c4ccccc4)n3)ccc2O1", "89.4%"],
  ["CCc1cccc(C)c1NC(=O)c1sc2nc3c(cc2c1N)C(=O)CCC3", "-30%"]
]}

Proceeding to the next molecule to report its growth at 10 µM.
Query: I would be grateful if you could share the reported growth at 10 µM for `CC(C)N1CCc2nc3sc(C(=O)Nc4ccccc4)c(N)c3cc2C1` .
Result: 98.4%

* * *

Test system: SK-MEL-28
Experiment: Growth inhibition of human SK-MEL-28 cells assessed as cell growth at 1 uM incubated for 48 hrs by sulforhodamine B assay relative to control
Assay type: functional
Settings: read-out: Activity
Mark T for growth at 1 µM under 50%, F if at or over.

Completed entries (count: 2):
{"columns": ["chemicalSmiles", "classAssignment"],
 "data": [
  ["CN1CCc2nc3sc(C(N)=O)c(N)c3c(-c3cccs3)c2C1", "F"],
  ["CCc1cccc(C)c1NC(=O)c1sc2nc3c(cc2c1N)C(=O)CCC3", "T"]
]}

Query: Determine if `Cc1cc(C)c(NC(=O)c2sc3nc4c(cc3c2N)CN(Cc2ccccc2)CC4)c(C)c1` shows growth at 1 µM strictly lower than 50%.
Result: F

Query: How about `Nc1c(C(=O)Nc2ccccc2)sc2nc3c(cc12)CN(Cc1ccccc1)CC3` ?
Result: F

Query: Can you handle `COc1cccc(NC(=O)c2sc3nc4c(cc3c2N)CN(Cc2ccccc2)CC4)c1` next?
Result: F

Query: One more molecule: `Cc1cccc(NC(=O)c2sc3nc4c(cc3c2N)C(=O)CCC4)c1`
Result: T
